Data origin: patent US20240254089A1

- study_system: human MRGPR X4 (Homo sapiens)
- Construct: expressed in transfected cells
- assay: MRGPR X4 antagonist activity, IP-One Gq HTRF assay in stably transfected HEK cells
- Type: cell-based
Below, each entry is listed with its recorded IC50.

compound | IC50
O=C(NCCc1nnc2ccccn12)c1nn(Cc2ccc3nsnc3c2)c2ccccc12 [Compound 477] | < 100 nM
O=C(NCCc1ccc(C(F)(F)F)cc1)c1cn(Cc2ccc(Cl)cc2)c2ccccc12 [Compound 208] | 1000 to 2500 nM
COc1ccc2nc(Cn3nc(C(=O)NCCc4nnc5ccccn45)c4ccccc43)n(C)c2c1 [Compound 567] | 1000 to 2500 nM
O=C(NCCc1cccc(C(F)(F)F)n1)c1nn(Cc2ccc(Cl)cc2)c2ccccc12 [Compound 117] | 1000 to 2500 nM
Cc1cccn2cc(CNC(=O)c3nn(Cc4ccc(Cl)cc4)c4ccccc34)nc12 [Compound 421] | 501 to 1000 nM
O=C(O)c1nn(Cc2ccc(C3CCCCC3)cc2)c2ccccc12 [Compound 332] | > 2500 nM
COc1ccc(Cn2cc(C(=O)NCCc3cccnc3)c3ccccc32)cc1 [Compound 176] | 100 to 500 nM
O=C(NCCc1ccc(F)cc1)c1cn(Cc2cccc(F)c2)c2ccccc12 [Compound 236] | > 2500 nM
COc1cc(Cl)ccc1Cn1nc(C(=O)NCCc2cccnc2)c2ccccc21 [Compound 114] | 1000 to 2500 nM
Cn1cc2cccc(CNC(=O)c3nn(Cc4ccc(Cl)cc4)c4ccccc34)c2n1 [Compound 428] | > 2500 nM
CC(C)(CNC(=O)c1cn(Cc2cccc(F)c2)c2ccccc12)c1cccnc1 [Compound 213] | 1000 to 2500 nM

----------
- study_system: human MRGPR X4 (Homo sapiens, UniProt Q96LA9)
- Construct: expressed in transfected cells
- Sequence (Q96LA9 whole entry): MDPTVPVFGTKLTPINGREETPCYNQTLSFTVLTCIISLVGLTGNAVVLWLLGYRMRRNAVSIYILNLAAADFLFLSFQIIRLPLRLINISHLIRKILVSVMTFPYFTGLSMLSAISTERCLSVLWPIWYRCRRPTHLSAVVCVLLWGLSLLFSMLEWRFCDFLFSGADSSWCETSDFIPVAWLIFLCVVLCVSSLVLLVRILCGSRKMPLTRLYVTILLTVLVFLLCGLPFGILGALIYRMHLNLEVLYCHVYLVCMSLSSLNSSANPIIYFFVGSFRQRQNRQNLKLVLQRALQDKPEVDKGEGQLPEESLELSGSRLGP
- assay: MRGPR X4 antagonist activity, IP-One Gq HTRF assay in stably transfected HEK cells
- Type: cell-based
pIC50: −log10 of the molar value.
property_label: pIC50

cpd_smiles | property_label | result
O=C(NCc1cccc(F)c1F)c1nn(Cc2ccc(Cl)cc2)c2ccccc12 | pIC50 | < 5.60
O=C(NCCc1nnc2n1CCCCC2)c1nn(Cc2ccc(-c3ccccc3)cc2)c2ccccc12 | pIC50 | 5.60 to 6.00
O=C(NCCc1ccno1)c1nn(Cc2ccc(Cl)cc2)c2ccccc12 | pIC50 | 6.00 to 6.30
Cc1ccc(Cn2nc(C(=O)NCCc3c[nH]c4ccccc34)c3ccccc32)cc1 | pIC50 | 5.60 to 6.00
CN(C)c1cccc(Cn2nc(C(=O)NCCc3nnc4ccccn34)c3ccccc32)n1 | pIC50 | < 5.60
Cc1cccn2c(CCNC(=O)c3nn(Cc4ccc(Cl)cc4)c4ccc(F)cc34)nnc12 | pIC50 | > 7.00
O=C(O)c1nn(Cc2ccc(Cl)cc2)c2cc(F)ccc12 | pIC50 | < 5.60
O=C(NCCc1nnc2ccccn12)c1nn(Cc2ccn3ccnc3c2)c2ccccc12 | pIC50 | < 5.60
COC1CN(CCn2cc(C(=O)NCCc3ccccn3)c3ccccc32)C1 | pIC50 | < 5.60
O=C(NCCc1cccc(OC(F)(F)F)c1)c1cn(Cc2ccc(Cl)cc2)c2ccccc12 | pIC50 | 5.60 to 6.00

----------
- study_system: human MRGPR X4 (Homo sapiens, UniProt Q96LA9)
- Construct: expressed in transfected cells
- assay: MRGPR X4 antagonist activity, IP-One Gq HTRF assay in stably transfected HEK cells
- Format: cell-based
- stated_conditions: versus 20 μM deoxycholic acid agonist; HEK cells expressing human MRGPR X4; read-out: MRGPRX4 Antagonist Activity
pIC50: −log10 of the molar value.
Below, each entry is listed with its recorded pIC50.
property_label: pIC50

compound | study_system | property_label | result
Cc1cccc(S(=O)(=O)NC(=O)c2nn(Cc3ccc(OC(F)F)cc3)c3ccccc23)c1C [Compound 282] | human MRGPR X4 (Homo sapiens, UniProt Q96LA9) | pIC50 | 5.60 to 6.00
O=C(CS(=O)(=O)c1cn(Cc2ccc(Cl)cc2)c2ccccc12)Nc1ccc(Cl)c(Cl)c1 [Compound 249] | human MRGPR X4 (Homo sapiens, UniProt Q96LA9) | pIC50 | 5.60 to 6.00
O=C(CS(=O)(=O)c1cn(Cc2ccc(Cl)cc2)c2ccccc12)Nc1cccnc1 [Compound 239] | human MRGPR X4 (Homo sapiens, UniProt Q96LA9) | pIC50 | 6.30 to 7.00
O=C(NCCc1nnc(C2CCOCC2)[nH]1)c1nn(Cc2cccc(F)c2)c2ccccc12 [Compound 129] | human MRGPR X4 (Homo sapiens, UniProt Q96LA9) | pIC50 | < 5.60
O=C(Cn1nc(C(=O)NCCc2nnc3ccccn23)c2ccccc21)c1cc2ccccc2o1 [Compound 503] | human MRGPR X4 (Homo sapiens, UniProt Q96LA9) | pIC50 | 6.00 to 6.30
Cc1cccc(S(=O)(=O)NC(=O)c2nn(Cc3ccc(C(F)(F)F)cc3Cl)c3ccccc23)c1 [Compound 306] | human MRGPR X4 (Homo sapiens, UniProt Q96LA9) | pIC50 | < 5.60
Cc1cccc(S(=O)(=O)NC(=O)c2cn(Cc3ccc(OC(F)F)cc3)c3ccccc23)c1 [Compound 313] | human MRGPR X4 (Homo sapiens, UniProt Q96LA9) | pIC50 | < 5.60
Cc1cccc(S(=O)(=O)NC(=O)c2nn(Cc3ccc(OC(F)F)cc3)c3ccccc23)c1F [Compound 278] | human MRGPR X4 (Homo sapiens, UniProt Q96LA9) | pIC50 | 5.60 to 6.00
O=C(NCCS(=O)(=O)c1ccccc1)c1nn(Cc2ccc(Cl)cc2)c2ccccc12 [Compound 407] | human MRGPR X4 (Homo sapiens, UniProt Q96LA9) | pIC50 | 5.60 to 6.00
N#Cc1ccc(S(=O)(=O)NC(=O)c2nn(Cc3ccc(OC(F)F)cc3)c3ccccc23)cc1 [Compound 280] | human MRGPR X4 (Homo sapiens, UniProt Q96LA9) | pIC50 | 5.60 to 6.00
O=C(Cn1nc(C(=O)NCCc2nnc3ccccn23)c2ccccc21)NCC1CCCCC1 [Compound 472] | human MRGPR X4 (Homo sapiens, UniProt Q96LA9) | pIC50 | < 5.60
O=C(NCCc1ccccn1)c1cn(CCc2ccc(Cl)cc2)c2ccccc12 [Compound 217] | human MRGPR X4 (Homo sapiens, UniProt Q96LA9) | pIC50 | 5.60 to 6.00
O=C(CS(=O)(=O)c1cn(Cc2ccc(Cl)cc2)c2ccccc12)Nc1cccc(F)c1 [Compound 240] | human MRGPR X4 (Homo sapiens, UniProt Q96LA9) | pIC50 | 6.30 to 7.00
Cc1cccc(S(=O)(=O)NC(=O)c2nn(Cc3ccccc3C#N)c3ccccc23)c1 [Compound 260] | human MRGPR X4 (Homo sapiens, UniProt Q96LA9) | pIC50 | 6.00 to 6.30
O=C(NS(=O)(=O)c1ccccc1OC(F)(F)F)c1nn(Cc2ccc(OC(F)F)cc2)c2ccccc12 [Compound 286] | human MRGPR X4 (Homo sapiens, UniProt Q96LA9) | pIC50 | 5.60 to 6.00
Cc1ccc(S(=O)(=O)NC(=O)c2nn(Cc3ccc(OC(F)F)cc3)c3ccccc23)cc1 [Compound 309] | human MRGPR X4 (Homo sapiens, UniProt Q96LA9) | pIC50 | 5.60 to 6.00
O=C(NCCn1cc(CN2CCS(=O)(=O)CC2)nn1)c1nn(Cc2ccc(Cl)cc2)c2ccccc12 [Compound 147] | human MRGPR X4 (Homo sapiens, UniProt Q96LA9) | pIC50 | < 5.60
CC(C)NC(=O)CS(=O)(=O)c1cn(Cc2ccc(Cl)cc2)c2ccccc12 [Compound 248] | human MRGPR X4 (Homo sapiens, UniProt Q96LA9) | pIC50 | 5.60 to 6.00
Cc1cccc(NC(=O)CS(=O)(=O)c2cn(Cc3ccc(Cl)cc3)c3ccccc23)c1 [Compound 243] | human MRGPR X4 (Homo sapiens, UniProt Q96LA9) | pIC50 | 6.00 to 6.30
O=C(CS(=O)(=O)c1cn(Cc2ccc(Cl)cc2)c2ccccc12)Nc1cccc(Cl)c1 [Compound 253] | human MRGPR X4 (Homo sapiens, UniProt Q96LA9) | pIC50 | 5.60 to 6.00
Cc1cccc(S(=O)(=O)NC(=O)c2nn(Cc3ccc(OC(F)F)cc3)c3ccccc23)c1Cl [Compound 283] | human MRGPR X4 (Homo sapiens, UniProt Q96LA9) | pIC50 | 5.60 to 6.00
O=C(NS(=O)(=O)Cc1cccnc1)c1nn(Cc2ccc(Cl)cc2)c2ccccc12 [Compound 310] | human MRGPR X4 (Homo sapiens, UniProt Q96LA9) | pIC50 | < 5.60
O=C(NCCOc1ccncc1)c1nn(Cc2ccc(Cl)cc2)c2ccccc12 [Compound 406] | human MRGPR X4 (Homo sapiens, UniProt Q96LA9) | pIC50 | 5.60 to 6.00
O=C(Cn1nc(C(=O)NCCc2nnc3ccccn23)c2ccccc21)c1ccc(Cl)c(Cl)c1 [Compound 482] | human MRGPR X4 (Homo sapiens, UniProt Q96LA9) | pIC50 | > 7.00
Cc1cccc(S(=O)(=O)NC(=O)c2nn(Cc3ccc(C#N)cc3)c3ccccc23)c1 [Compound 273] | human MRGPR X4 (Homo sapiens, UniProt Q96LA9) | pIC50 | 5.60 to 6.00
Cc1cccc(S(=O)(=O)NC(=O)c2nn(Cc3ccc(Cl)cc3)c3ccccc23)c1 [Compound 279] | human MRGPR X4 (Homo sapiens, UniProt Q96LA9) | pIC50 | 5.60 to 6.00
